- assaySystem: human HSP90 alpha protein (N-terminal, amino acids 2-236) (Homo sapiens (Human), UniProt P07900)
measurementKind: IC50 (nM)

smilesString: Cn1cc(-c2cn(-c3cccc4c3c(C(F)(F)F)nn4-c3ccc(C(N)=O)cc3NC3CCC3)cn2)cn1
recordedNumber: 150
//
smilesString: Cn1cc(-c2cn(-c3cccc4c3c(C(F)(F)F)nn4-c3ccc(C(N)=O)c(NC(C)(C)C)c3)cn2)cn1
recordedNumber: 270
//
smilesString: CCc1cn(-c2ccc(C(N)=O)c(NC(C)(C)C)c2)c2cccc(-n3cnc(-c4cnn(C)c4)c3)c12
recordedNumber: 260
//
smilesString: CC(C)(C)Nc1cc(-n2nc(C(F)(F)F)c3c(-n4cnc(-c5cccnc5)c4)cccc32)ccc1C(N)=O
recordedNumber: 290

I: NC(=O)c1ccc(-n2nc(C(F)(F)F)c3c(-n4cnc(-c5cccnc5)c4)cccc32)c(NC2CCC2)c1
II: CCc1cc(C(N)=O)ccc1-n1nc(C(F)(F)F)c2c(-n3cnc(-c4cccnc4)c3)cccc21
Prompt line: Higher IC50 between I and II ? Please indicate the selected item by its label.
Response line: I

P: CC(C)c1nn(-c2ccc(C(N)=O)cc2NC2CCC2)c2cccc(-n3cnc(-c4cnn(C)c4)c3)c12
Q: CCc1cc(C(N)=O)ccc1-n1nc(C(F)(F)F)c2c(-n3cnc(-c4cnn(C)c4)c3)cccc21
R: CC(C)c1nn(-c2ccc(C(N)=O)cc2NC2CCC2)c2cccc(-n3cnc(-c4cccnc4)c3)c12
S: Cc1cn(-c2ccc(C(N)=O)c(NC(C)(C)C)c2)c2cccc(-n3cnc(-c4cccnc4)c3)c12
T: CC(C)c1nn(-c2ccc(C(N)=O)cc2Cl)c2cccc(-n3cnc(-c4cccnc4)c3)c12
Prompt line: Please rank these compounds by IC50 in descending order. Respond with the label ranking, as requested.
Response line: T, S, R, P, Q
